# targetOrSystem: cardiac myofibrils (myosin ATPase)
# Construct: frozen myofibril pellets obtained from cardiac tissue; from tissue
# Sequence (P12883 whole entry): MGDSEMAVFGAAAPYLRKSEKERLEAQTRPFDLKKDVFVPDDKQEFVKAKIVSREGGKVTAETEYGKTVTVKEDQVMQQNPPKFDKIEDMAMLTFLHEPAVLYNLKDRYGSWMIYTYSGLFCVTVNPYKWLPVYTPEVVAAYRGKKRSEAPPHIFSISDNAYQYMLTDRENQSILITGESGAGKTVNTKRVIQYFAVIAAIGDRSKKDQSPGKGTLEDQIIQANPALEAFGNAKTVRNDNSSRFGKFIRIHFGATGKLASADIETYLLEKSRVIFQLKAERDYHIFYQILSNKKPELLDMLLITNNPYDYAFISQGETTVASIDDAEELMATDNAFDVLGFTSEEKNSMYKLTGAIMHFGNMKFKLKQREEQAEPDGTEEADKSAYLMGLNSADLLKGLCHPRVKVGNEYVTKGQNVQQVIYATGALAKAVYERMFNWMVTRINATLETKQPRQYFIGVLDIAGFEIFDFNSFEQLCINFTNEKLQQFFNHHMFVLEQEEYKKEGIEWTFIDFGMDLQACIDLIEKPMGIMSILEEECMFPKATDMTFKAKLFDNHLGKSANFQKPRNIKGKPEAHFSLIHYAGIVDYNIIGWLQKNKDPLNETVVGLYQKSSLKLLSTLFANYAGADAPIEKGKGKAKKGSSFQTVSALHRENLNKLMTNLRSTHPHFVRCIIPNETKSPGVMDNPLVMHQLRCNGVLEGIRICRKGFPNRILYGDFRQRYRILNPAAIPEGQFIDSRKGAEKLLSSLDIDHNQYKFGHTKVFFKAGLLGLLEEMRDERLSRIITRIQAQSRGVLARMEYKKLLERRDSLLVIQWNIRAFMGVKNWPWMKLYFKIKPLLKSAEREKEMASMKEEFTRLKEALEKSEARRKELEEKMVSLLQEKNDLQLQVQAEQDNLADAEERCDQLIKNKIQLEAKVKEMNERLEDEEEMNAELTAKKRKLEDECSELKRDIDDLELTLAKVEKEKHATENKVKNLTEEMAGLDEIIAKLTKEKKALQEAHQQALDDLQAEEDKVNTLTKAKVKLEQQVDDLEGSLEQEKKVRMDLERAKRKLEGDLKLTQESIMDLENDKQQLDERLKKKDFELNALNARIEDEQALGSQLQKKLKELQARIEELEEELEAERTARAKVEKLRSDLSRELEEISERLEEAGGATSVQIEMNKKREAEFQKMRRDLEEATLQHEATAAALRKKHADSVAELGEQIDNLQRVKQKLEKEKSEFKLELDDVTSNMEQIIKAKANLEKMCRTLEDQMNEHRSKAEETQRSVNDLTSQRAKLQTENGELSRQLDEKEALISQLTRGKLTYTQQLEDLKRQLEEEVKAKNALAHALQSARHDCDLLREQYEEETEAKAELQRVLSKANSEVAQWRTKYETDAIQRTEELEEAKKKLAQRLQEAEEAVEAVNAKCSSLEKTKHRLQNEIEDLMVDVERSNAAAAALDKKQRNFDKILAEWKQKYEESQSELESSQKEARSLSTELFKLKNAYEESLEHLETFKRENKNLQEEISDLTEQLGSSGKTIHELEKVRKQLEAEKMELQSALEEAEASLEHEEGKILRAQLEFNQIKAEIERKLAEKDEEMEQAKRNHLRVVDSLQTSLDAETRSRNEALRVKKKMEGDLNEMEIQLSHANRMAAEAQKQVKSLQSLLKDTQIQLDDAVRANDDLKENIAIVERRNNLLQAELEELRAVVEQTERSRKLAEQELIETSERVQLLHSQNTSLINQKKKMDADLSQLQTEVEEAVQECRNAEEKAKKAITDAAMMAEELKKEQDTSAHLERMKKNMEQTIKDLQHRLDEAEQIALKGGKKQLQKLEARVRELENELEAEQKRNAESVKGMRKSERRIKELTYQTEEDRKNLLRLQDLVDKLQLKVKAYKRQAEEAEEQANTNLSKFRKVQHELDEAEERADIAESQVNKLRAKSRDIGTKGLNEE
# Sequence (P08590 whole entry partner): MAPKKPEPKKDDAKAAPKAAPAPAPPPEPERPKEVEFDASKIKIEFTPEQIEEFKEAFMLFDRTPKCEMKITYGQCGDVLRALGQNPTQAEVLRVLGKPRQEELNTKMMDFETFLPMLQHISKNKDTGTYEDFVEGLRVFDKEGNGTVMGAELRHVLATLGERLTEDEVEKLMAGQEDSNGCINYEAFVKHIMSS
# Sequence (P10916 whole entry partner): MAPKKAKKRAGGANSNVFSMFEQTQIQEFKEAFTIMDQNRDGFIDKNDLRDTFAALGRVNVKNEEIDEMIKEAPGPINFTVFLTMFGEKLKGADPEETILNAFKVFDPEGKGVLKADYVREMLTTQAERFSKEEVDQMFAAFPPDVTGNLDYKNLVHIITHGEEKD
# methodNotes: Cardiac Myofibril ATPase Assay (counter screen)
# Format: biochemical
# reportedConditions: myofibrils 1.0 mg/mL, KCl omitted, Table 5A
pIC50: −log10 of the molar value.

{"columns": ["entrySmiles", "pIC50"],
 "data": [
  ["CCNC(=O)Cn1nc(-c2ccc(N3CC(C)(C)C3)nc2)ccc1=O", "< 4.00"],
  ["O=C(Cn1nc(-c2ccc(NC3CCC3)nc2)ccc1=O)NC1CCC1", "< 4.00"],
  ["CCNC(=O)Cn1nc(-c2cnc(Nc3ccc(F)cc3)nc2)ccc1=O", "< 4.00"],
  ["CCNC(=O)Cn1nc(-c2ccc(N(C)C34CC(C3)C4)nc2)ccc1=O", "4.00 to 5.00"],
  ["O=C(Cn1nc(-c2ccc(OC(F)F)nc2)ccc1=O)NC1(c2ccccc2)CCC1", "< 4.00"],
  ["CCNC(=O)Cn1nc(-c2ccc(N(C)C3CCC3)nc2)ccc1=O", "4.00 to 5.00"],
  ["O=C(Cn1nc(-c2ccc(OC(F)F)nc2)ccc1=O)NCc1ccc(Cl)cc1", "< 4.00"],
  ["CCNC(=O)Cn1nc(-c2ccc(NC3COC3)nc2)ccc1=O", "< 4.00"],
  ["CCNC(=O)Cn1nc(-c2ccc(OCC3(F)COC3)nc2)ccc1=O", "< 4.00"]
]}

====

# targetOrSystem: skeletal myofibrils (myosin ATPase)
# methodNotes: Skeletal Myofibril ATPase Assay
# Assay type: biochemical
# reportedConditions: Table 4C

{"columns": ["entrySmiles", "targetOrSystem", "IC50"],
 "data": [
  ["COc1ccc(-c2ccc(=O)n(CC(=O)NC3CCCCC3)n2)cc1", "skeletal myofibrils (myosin ATPase)", "> 100 µM"],
  ["COc1ccc(-c2ccc(=O)n(CC(=O)NCC(C)C)n2)cc1", "skeletal myofibrils (myosin ATPase)", "10 to 100 µM"],
  ["CN(Cc1ccccc1)C(=O)Cn1nc(-c2ccc(Cl)cc2)ccc1=O", "skeletal myofibrils (myosin ATPase)", "10 to 100 µM"],
  ["CCOc1ccc(-c2ccc(=O)n(CC(=O)NC(C)C)n2)cc1", "skeletal myofibrils (myosin ATPase)", "< 10 µM"],
  ["COc1ccc(-c2ccc(=O)n(CC(=O)NCc3cnccn3)n2)cc1", "skeletal myofibrils (myosin ATPase)", "> 100 µM"],
  ["COc1ccccc1NC(=O)Cn1nc(-c2ccc(Cl)cc2)ccc1=O", "skeletal myofibrils (myosin ATPase)", "< 10 µM"],
  ["CCOc1ccc(-c2ccc(=O)n(CC(=O)NCc3ccccc3Cl)n2)cc1", "skeletal myofibrils (myosin ATPase)", "< 10 µM"]
]}

====

Each entry below lists one item and its recorded IC50 value.
# targetOrSystem: skeletal myofibrils (myosin ATPase)
# methodNotes: Skeletal Myofibril ATPase Assay
# Assay type: biochemical
# reportedConditions: Table 4A
assayReadout: IC50

{"columns": ["entrySmiles", "valueMeasured"],
 "data": [
  ["Cn1nccc1CNC(=O)Cn1nc(-c2ccc(OC(F)F)nc2)ccc1=O", "> 100 µM"],
  ["CCNC(=O)Cn1nc(-c2cnc(OCC(F)(F)F)nc2)ccc1=O", "< 10 µM"],
  ["CCNC(=O)Cn1nc(-c2ccc(NC3COC3)nc2)ccc1=O", "< 10 µM"],
  ["CCNC(=O)Cn1nc(-c2ccc(SC)nc2)ccc1=O", "< 10 µM"],
  ["CC[C@H](C)NC(=O)Cn1nc(-c2ccc(OC(F)F)nc2)ccc1=O", "< 10 µM"],
  ["O=C(Cn1nc(-c2ccc(OC(F)F)nc2)ccc1=O)NC1CCC1", "< 10 µM"],
  ["CC[C@@H](C)NC(=O)Cn1nc(-c2ccc(OC(F)F)nc2)ccc1=O", "< 10 µM"],
  ["O=C(Cn1nc(-c2ccc(NC34CC(C3)C4)nc2)ccc1=O)NC12CC(C1)C2", "< 10 µM"],
  ["CCNC(=O)Cn1nc(-c2cnc(NC34CC(C3)C4)nc2)ccc1=O", "< 10 µM"],
  ["O=C(Cn1nc(-c2ccc(NC3CCC3)nc2)ccc1=O)NC1CCC1", "< 10 µM"],
  ["CCNC(=O)Cn1nc(-c2ccc(N3CC(OC(F)F)C3)nc2)ccc1=O", "10 to 100 µM"],
  ["CCNC(=O)Cn1nc(-c2cnc(NC34CC(O)(C3)C4)nc2)ccc1=O", "10 to 100 µM"],
  ["O=C(Cn1nc(-c2ccc(OC(F)F)nc2)ccc1=O)NCc1ccccc1Cl", "< 10 µM"],
  ["CCNC(=O)Cn1nc(-c2ccc(OCC3(F)COC3)nc2)ccc1=O", "10 to 100 µM"],
  ["CCNC(=O)Cn1nc(-c2cnc(OCC3CC(F)(F)C3)nc2)ccc1=O", "10 to 100 µM"],
  ["CCNC(=O)Cn1nc(-c2ccc(NC3CCC3)nc2)ccc1=O", "< 10 µM"],
  ["CCNC(=O)Cn1nc(-c2ccc(N3CC4(COC4)C3)nc2)ccc1=O", "> 100 µM"],
  ["COc1ccc(-c2ccc(=O)n(CC(=O)NCc3ccccc3Cl)n2)cn1", "< 10 µM"]
]}

====

# targetOrSystem: skeletal myofibrils (myosin ATPase)
# methodNotes: Skeletal Myofibril ATPase Assay
# Assay type: biochemical
# reportedConditions: Table 4A
pIC50: −log10 of the molar value.
Each entry below lists one item and its recorded pIC50 value.

{"columns": ["compound", "pIC50"],
 "data": [
  ["O=C(Cn1nc(-c2ccc(NC34CC(C3)C4)nc2)ccc1=O)NC1CCC1 [Compound I-54]", "> 5.00"],
  ["CCNC(=O)Cn1nc(-c2cnc(Nc3ccc(F)cc3)nc2)ccc1=O [Compound I-2]", "> 5.00"],
  ["CCC(C)(C)NC(=O)Cn1nc(-c2ccc(OC(F)F)nc2)ccc1=O [Compound I-20]", "4.00 to 5.00"],
  ["CCNC(=O)Cn1nc(-c2cnc(OCCOC(F)(F)F)nc2)ccc1=O [Compound I-49]", "4.00 to 5.00"],
  ["CCNC(=O)Cn1nc(-c2cnc(Nc3ccc(Cl)cc3)nc2)ccc1=O [Compound I-1]", "> 5.00"],
  ["CCNC(=O)Cn1nc(-c2ccc(OC(F)(F)F)nc2)ccc1=O [Compound I-14]", "4.00 to 5.00"],
  ["CCNC(=O)Cn1nc(-c2ccc(NC34CC(C3)C4)nc2)ccc1=O [Compound I-36]", "> 5.00"],
  ["CCNC(=O)Cn1nc(-c2ccc(OC(F)F)[n+]([O-])c2)ccc1=O [Compound I-65]", "< 4.00"],
  ["CCCOc1ncc(-c2ccc(=O)n(CC(=O)NC3CCC3)n2)cn1 [Compound I-73]", "> 5.00"],
  ["O=C(Cn1nc(-c2ccc(OC(F)F)nc2)ccc1=O)NC1CC(F)(F)C1 [Compound I-33]", "< 4.00"],
  ["CCNC(=O)Cn1nc(-c2ccc(CC(F)(F)F)nc2)ccc1=O [Compound I-37]", "4.00 to 5.00"],
  ["CCNC(=O)Cn1nc(-c2cnc(Oc3ccc(Cl)cc3)nc2)ccc1=O [Compound I-78]", "4.00 to 5.00"],
  ["CCNC(=O)Cn1nc(-c2cnc(NC34CC(F)(C3)C4)nc2)ccc1=O [Compound I-57]", "> 5.00"],
  ["CCNC(=O)Cn1nc(-c2ccc(NC34CCC(CC3)CC4)nc2)ccc1=O [Compound I-41]", "4.00 to 5.00"],
  ["CCNC(=O)Cn1nc(-c2ccc(OCC(F)(F)F)nc2)ccc1=O [Compound I-13]", "4.00 to 5.00"],
  ["CCNC(=O)Cn1nc(-c2ccc(N3CCCC3C(F)(F)F)nc2)ccc1=O (stereo not drawn) [Compound I-48]", "> 5.00"],
  ["CCNC(=O)Cn1nc(-c2ccc(OC(C)C)nc2)ccc1=O [Compound I-27]", "< 4.00"],
  ["O=C(Cn1nc(-c2ccc(OC(F)F)nc2)ccc1=O)NCc1ccc(Cl)cc1 [Compound I-70]", "> 5.00"]
]}

====

# targetOrSystem: skeletal myofibrils (myosin ATPase)
# methodNotes: Skeletal Myofibril ATPase Assay
# Assay type: biochemical
# reportedConditions: Table 4C
# Description: FIG. 7 depicts the buffer preparation procedures of Buffer A and Buffer B for the skeletal myofibril ATPase assay described in Example 12. Buffers were stored on ice until use. Example 12: Skeletal Myofibril ATPase Assay Overview: Myosin ATPase activity is assessed by using a coupled reaction system, in which ADP generated by the myosin ATPase function is coupled to the disappearance of NADH through the pyruvate kinase/lactate dehydrogenase (PK-LDH) system. […]
Each entry below lists one item and its recorded IC50 value.

{"columns": ["entrySmiles", "targetOrSystem", "IC50"],
 "data": [
  ["O=C(Cn1nc(-c2ccc(F)cc2)ccc1=O)NCCc1c[nH]c2ccccc12", "skeletal myofibrils (myosin ATPase)", "10 to 100 µM"],
  ["Cc1ccc(-c2ccc(=O)n(CC(=O)NC3CCCCCC3)n2)cc1", "skeletal myofibrils (myosin ATPase)", "10 to 100 µM"],
  ["COc1ccc(-c2ccc(=O)n(CC(=O)NCc3ccccc3Cl)n2)c(C)c1", "skeletal myofibrils (myosin ATPase)", "10 to 100 µM"],
  ["COc1ccc(-c2ccc(=O)n(CC(=O)NCC3CCOCC3)n2)cc1", "skeletal myofibrils (myosin ATPase)", "> 100 µM"],
  ["COc1ccc(-c2ccc(=O)n(CC(=O)Nc3ccc4c(c3)OCO4)n2)cc1", "skeletal myofibrils (myosin ATPase)", "10 to 100 µM"]
]}
